// IC50 lookup, one value per entry
target: T1, HIV-1 YU-2 gp120 (wild-type gp120YU-2, monomeric) (HIV-1 (YU-2), UniProt P35961 32-498); assay: SPR competition, 17b inhibition: inhibition of gp120 binding to immobilized mAb 17b
T1 construct: domain: gp120; only gp120 stood in the assay
Starred links: 1 amine or outer side, 2 acyl side, 3 side chain; linkers in the order of their positions; H or OH if unused. Positions of bridges follow the written chain, without caps; N, C: chain ends. Non-standard residues stand in square brackets, D forms with d. No end group written: not given here. X2 = (2S,4S)‑4‑(4-ferrocenyl-1H-1,2,3-triazol-1-yl)pyrrolidine‑2‑carboxylic acid, O=C([C@@H]1C[C@H](n2cc(-[c-]3cccc3)nn2)CN1[*:1])[*:2].[Fe+2].c1cc[cH-]c1; X3 = (2S,4S)‑4‑(4-ferrocenyl-1H-1,2,3-triazol-1-yl)proline, O=C([C@@H]1C[C@H](n2cc(-[c-]3cccc3)nn2)CN1[*:1])[*:2].[Fe+2].c1cc[cH-]c1; Pro(cis-4-Trz(4-CH2CH2Ph)) = O=C(O)[C@@H]1C[C@H](n2cc(CCc3ccccc3)nn2)CN1; Orn = NCCC[C@H](N)C(=O)O; Dab = NCC[C@H](N)C(=O)O
Give the value, in units of nM, as a plain number.

Here is how some binders turned out for IC50.
• DNI[X2]WK-NH2 (lactam 1-6, Ferrocenyl analogue of AAR029) [AAR029b] = 35
• DNI[Pro(cis-4-Trz(4-CH2CH2Ph))]W[Dab]-NH2 (lactam 1-6; N-terminus assumed; SMILES CC[C@H](C)[C@@H]1NC(=O)[C@H](CC(N)=O)NC(=O)[C@@H](N)CC(=O)NCC[C@@H](C(N)=O)NC(=O)[C@H](Cc2c[nH]c3ccccc23)NC(=O)[C@@H]2C[C@H](n3cc(CCc4ccccc4)nn3)CN2C1=O) [AAR032] = 400
• DNI[Pro(cis-4-Trz(4-CH2CH2Ph))]W[Orn]-NH2 (lactam 1-6; N-terminus assumed; SMILES CC[C@H](C)[C@@H]1NC(=O)[C@H](CC(N)=O)NC(=O)[C@@H](N)CC(=O)NCCC[C@@H](C(N)=O)NC(=O)[C@H](Cc2c[nH]c3ccccc23)NC(=O)[C@@H]2C[C@H](n3cc(CCc4ccccc4)nn3)CN2C1=O) [AAR031] = 3900

Q. If you can, please state the reported IC50 value of IENI[Pro(cis-4-Trz(4-CH2CH2Ph))]WK-NH2 (N-terminus assumed; SMILES CC[C@H](C)[C@H](N)C(=O)N[C@@H](CCC(=O)O)C(=O)N[C@@H](CC(N)=O)C(=O)N[C@H](C(=O)N1C[C@@H](n2cc(CCc3ccccc3)nn2)C[C@H]1C(=O)N[C@@H](Cc1c[nH]c2ccccc12)C(=O)N[C@@H](CCCCN)C(N)=O)[C@@H](C)CC, Acyclic (linear) counterpart of AAR024; also called acyclic analogue of AAR024; linear AAR024A) [AAR024A] .
A. 11300

Q. If you can, please state the reported IC50 value of IENI[X3]WK-NH2 (lactam 2-7, Ferrocenyl analogue of AAR024) [AAR024b] .
A. 37.6
